target: human KDR (VEGF-receptor-2) (Homo sapiens, UniProt P35968); construct: beginning at Met-806; (5′-ATG GAT CCA GAT GM CTC CCA TTG) and ending at Val-1356; made in house; assay: KDR kinase enzyme assay wash-out experiments (irreversible inhibition); format: biochemical; conditions: no wash
Sequence (P35968 806-1356): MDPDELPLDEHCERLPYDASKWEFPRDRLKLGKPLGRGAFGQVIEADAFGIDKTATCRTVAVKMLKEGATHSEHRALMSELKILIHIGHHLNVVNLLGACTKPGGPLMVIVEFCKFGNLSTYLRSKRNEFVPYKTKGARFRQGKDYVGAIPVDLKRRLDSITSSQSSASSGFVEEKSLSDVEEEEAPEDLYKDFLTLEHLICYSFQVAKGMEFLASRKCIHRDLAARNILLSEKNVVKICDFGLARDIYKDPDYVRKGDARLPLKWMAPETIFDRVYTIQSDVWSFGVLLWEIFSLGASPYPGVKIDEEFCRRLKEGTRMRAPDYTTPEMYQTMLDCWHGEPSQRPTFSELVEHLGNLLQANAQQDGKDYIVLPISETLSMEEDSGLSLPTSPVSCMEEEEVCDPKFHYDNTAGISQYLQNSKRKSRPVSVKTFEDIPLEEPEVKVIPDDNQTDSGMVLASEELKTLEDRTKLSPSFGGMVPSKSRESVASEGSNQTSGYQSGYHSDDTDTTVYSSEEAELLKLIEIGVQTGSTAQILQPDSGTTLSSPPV
RESULT TYPE: pIC50
In textbook form, pIC50 equals minus log to base ten of the concentration in mol/L.

Please give the measured pIC50 for this compound: COc1cc2ncnc(NC3=CC(=O)C(Oc4ccccc4)=CC3=O)c2cc1OC
8.38

# get_value(readout='pIC50', item= COCCOc1cc2ncnc(NC3=CC(=O)C(Oc4cccnc4)=CC3=O)c2cc1OC )
7.72

# pIC50 lookup, item COc1cc2ncnc(NC3=CC(=O)C(Nc4ccccc4)=CC3=O)c2cc1OC
7.39

Quick one: pIC50 for COCCOc1cc2ncnc(NC3=CC(=O)C(OCC4CC4)=CC3=O)c2cc1OC ?
8.33
